System: IL1-β release upon NLRP3 activation in peripheral blood mononuclear cells (PBMC)
Test Protocol: PBMC IC50 Determination Assay
Assay type: cell-based
Test Parameters: Homo sapiens; PBMC from buffy coats, LPS 3 h, compound 30 min, then ATP (5 mM) or nigericin (10 μM) for 1 h; IL-1β in media by ELISA; read-out: PBMCs, IC50

Compound	Sign Qualifier	IC50 (nM)
COC(=O)C(Cc1cccc(-c2cncn2C)c1)NC(=O)Nc1c2c(cc3c1CCC3)CCC2 (centres unmarked)	=	960
COC(=O)[C@@H](Cc1ccc(C#N)cc1)NC(=O)Nc1c2c(cc3c1CCC3)CCC2	=	1400
COC(=O)[C@@H](CC#N)NC(=O)Nc1c2c(cc3c1CCC3)CCC2	<	10000
COC(=O)[C@@H](Cc1cccnc1)NC(=O)Nc1c2c(cc3c1CCC3)CCC2	=	880
CCOC(=O)CNC(=O)Nc1c2c(cc3c1CCC3)CCC2	=	1500
